# credit: patent US12415777B2

experiment: Solvent solubility test; assay type: physicochemical; set-up: key: A: Soluble; B: Soluble, but undissolved residue was visually confirmed; C: Insoluble; conditions: methyl isobutyl ketone; 3% by mass, stood overnight at room temperature (15 to 25° C.), visually observed
measurementLabel: Solubility in MIBK

Lab book: Solubility in MIBK of CC(C)NC(=O)CCC1(CCC(=O)NC(C)C)c2ccccc2-c2ccccc21 [NIPAM-FL] noted as B

Lab book: Solubility in MIBK of CCN(CC)C(=O)CCC1(CCC(=O)N(CC)CC)c2ccccc2-c2ccccc21 [DEAA-FL] noted as A

Lab book: Solubility in MIBK of CN(C)C(=O)CCC1(CCC(=O)N(C)C)c2ccccc2-c2ccccc21 [DMAA-FL] noted as A

Lab book: Solubility in MIBK of NC(=O)CCC1(CCC(N)=O)c2ccccc2-c2ccccc21 [AAD-FL, 9,9-di-(β-carbamoyl-ethyl)fluorene, reference compound] noted as B

###

assay: Solvent solubility test; format: physicochemical; set-up: key: A: Soluble; B: Soluble, but undissolved residue was visually confirmed; C: Insoluble; details: tetrahydrofuran; 3% by mass, stood overnight at room temperature (15 to 25° C.), visually observed
measurementLabel: Solubility in THF

Lab book: Solubility in THF of `CCN(CC)C(=O)CCC1(CCC(=O)N(CC)CC)c2ccccc2-c2ccccc21` noted as A

Lab book: Solubility in THF of `CC(C)NC(=O)CCC1(CCC(=O)NC(C)C)c2ccccc2-c2ccccc21` noted as C

Lab book: Solubility in THF of NC(=O)CCC1(CCC(N)=O)c2ccccc2-c2ccccc21 [AAD-FL, 9,9-di-(β-carbamoyl-ethyl)fluorene, reference compound] noted as C

Lab book: Solubility in THF of `CN(C)C(=O)CCC1(CCC(=O)N(C)C)c2ccccc2-c2ccccc21` noted as A

###

experiment: Solvent solubility test; format: physicochemical; design: key: A: Soluble; B: Soluble, but undissolved residue was visually confirmed; C: Insoluble; conditions: 1,4-dioxane; 3% by mass, stood overnight at room temperature (15 to 25° C.), visually observed
measurementLabel: Solubility in Dioxane

Lab book: Solubility in Dioxane of NC(=O)CCC1(CCC(N)=O)c2ccccc2-c2ccccc21 [AAD-FL, 9,9-di-(β-carbamoyl-ethyl)fluorene, reference compound] noted as C

Lab book: Solubility in Dioxane of CC(C)NC(=O)CCC1(CCC(=O)NC(C)C)c2ccccc2-c2ccccc21 [NIPAM-FL] noted as C

Lab book: Solubility in Dioxane of CN(C)C(=O)CCC1(CCC(=O)N(C)C)c2ccccc2-c2ccccc21 [DMAA-FL] noted as C

Lab book: Solubility in Dioxane of CCN(CC)C(=O)CCC1(CCC(=O)N(CC)CC)c2ccccc2-c2ccccc21 [DEAA-FL] noted as A

###

test: Solvent solubility test; format: physicochemical; parameters: key: A: Soluble; B: Soluble, but undissolved residue was visually confirmed; C: Insoluble; conditions: 3% by mass, stood overnight at room temperature (15 to 25° C.), visually observed
measurementLabel: Solubility in Ethanol

Lab book: Solubility in Ethanol of `CCN(CC)C(=O)CCC1(CCC(=O)N(CC)CC)c2ccccc2-c2ccccc21` noted as A

Lab book: Solubility in Ethanol of NC(=O)CCC1(CCC(N)=O)c2ccccc2-c2ccccc21 [AAD-FL, 9,9-di-(β-carbamoyl-ethyl)fluorene, reference compound] noted as C

Lab book: Solubility in Ethanol of `CC(C)NC(=O)CCC1(CCC(=O)NC(C)C)c2ccccc2-c2ccccc21` noted as C

Lab book: Solubility in Ethanol of `CN(C)C(=O)CCC1(CCC(=O)N(C)C)c2ccccc2-c2ccccc21` noted as A

###

experiment: Solvent solubility test; type: physicochemical; set-up: key: A: Soluble; B: Soluble, but undissolved residue was visually confirmed; C: Insoluble; conditions: 3% by mass, stood overnight at room temperature (15 to 25° C.), visually observed
measurementLabel: Solubility in Chloroform

Lab book: Solubility in Chloroform of `CCN(CC)C(=O)CCC1(CCC(=O)N(CC)CC)c2ccccc2-c2ccccc21` noted as A

Lab book: Solubility in Chloroform of `CC(C)NC(=O)CCC1(CCC(=O)NC(C)C)c2ccccc2-c2ccccc21` noted as C

Lab book: Solubility in Chloroform of `CN(C)C(=O)CCC1(CCC(=O)N(C)C)c2ccccc2-c2ccccc21` noted as A

Lab book: Solubility in Chloroform of NC(=O)CCC1(CCC(N)=O)c2ccccc2-c2ccccc21 [AAD-FL, 9,9-di-(β-carbamoyl-ethyl)fluorene, reference compound] noted as C

###

assay: Solvent solubility test; format: physicochemical; design: key: A: Soluble; B: Soluble, but undissolved residue was visually confirmed; C: Insoluble; details: methyl ethyl ketone; 3% by mass, stood overnight at room temperature (15 to 25° C.), visually observed
measurementLabel: Solubility in MEK

Lab book: Solubility in MEK of `CC(C)NC(=O)CCC1(CCC(=O)NC(C)C)c2ccccc2-c2ccccc21` noted as C

Lab book: Solubility in MEK of `CCN(CC)C(=O)CCC1(CCC(=O)N(CC)CC)c2ccccc2-c2ccccc21` noted as A

Lab book: Solubility in MEK of `CN(C)C(=O)CCC1(CCC(=O)N(C)C)c2ccccc2-c2ccccc21` noted as C

Lab book: Solubility in MEK of NC(=O)CCC1(CCC(N)=O)c2ccccc2-c2ccccc21 [AAD-FL, 9,9-di-(β-carbamoyl-ethyl)fluorene, reference compound] noted as C

###

experiment: Solvent solubility test; assay type: physicochemical; set-up: key: A: Soluble; B: Soluble, but undissolved residue was visually confirmed; C: Insoluble; settings: 3% by mass, stood overnight at room temperature (15 to 25° C.), visually observed
measurementLabel: Solubility in Acetone

Lab book: Solubility in Acetone of `CCN(CC)C(=O)CCC1(CCC(=O)N(CC)CC)c2ccccc2-c2ccccc21` noted as A

Lab book: Solubility in Acetone of `CN(C)C(=O)CCC1(CCC(=O)N(C)C)c2ccccc2-c2ccccc21` noted as C

Lab book: Solubility in Acetone of NC(=O)CCC1(CCC(N)=O)c2ccccc2-c2ccccc21 [AAD-FL, 9,9-di-(β-carbamoyl-ethyl)fluorene, reference compound] noted as C

Lab book: Solubility in Acetone of `CC(C)NC(=O)CCC1(CCC(=O)NC(C)C)c2ccccc2-c2ccccc21` noted as C

###

Test: Solvent solubility test
Format: physicochemical
Design: key: A: Soluble; B: Soluble, but undissolved residue was visually confirmed; C: Insoluble
Settings: 3% by mass, stood overnight at room temperature (15 to 25° C.), visually observed
Protocol: (Solvent Solubility Test) For each sample and solvent, a sample and a solvent shown in Table 1 below were mixed in a concentration of 3% by mass, and a mixture was shaken by hand for about 10 minutes, and then allowed to stand overnight at a room temperature (temperature of 15 to 25° C.). […]
measurementLabel: Solubility in Methanol

Lab book: Solubility in Methanol of CN(C)C(=O)CCC1(CCC(=O)N(C)C)c2ccccc2-c2ccccc21 [DMAA-FL] noted as A

Lab book: Solubility in Methanol of NC(=O)CCC1(CCC(N)=O)c2ccccc2-c2ccccc21 [AAD-FL, 9,9-di-(β-carbamoyl-ethyl)fluorene, reference compound] noted as C

Lab book: Solubility in Methanol of CCN(CC)C(=O)CCC1(CCC(=O)N(CC)CC)c2ccccc2-c2ccccc21 [DEAA-FL] noted as A

Lab book: Solubility in Methanol of CC(C)NC(=O)CCC1(CCC(=O)NC(C)C)c2ccccc2-c2ccccc21 [NIPAM-FL] noted as A
